Data provenance is the supplement of paper PMC9170038.

- Test system: MS2 coat protein
- Assay method text: apparent KD of MS2 coat protein; designed switch direction (-1 OFF switch, 1 ON switch): 1; higher = weaker reporter binding
- Condition parameters: input ligand: microRNA oligo, concentration not stated
Provide the recorded apparent KD of MS2 coat protein for the entries that follow.
Respond with a number, then the unit of measure.

[[record]]
residue_string = "AUAAGAAACACAGGAUAUACCGCACUUAACGCGGUAGAAGGGUGGGACAUGAGGAUCACCCAUGUGGCCCGGGCGCCGGACCGC [Edquzative] (Eterna round: R96, puzzle: Same State NG 1)"
endpoint_name = "apparent KD of MS2 coat protein"
value_observed = "10 nM"


For each of the items listed, what is its apparent KD of MS2 coat protein?
1. UGGUACAUGGGAGGAUAUCCUCAGGAGACAUGAGGAUCACCCAUGUAAUUAAAGCCGAAAGGCAUGGAGAAGGCCCAUGUACCU [JL SSNG1 3.79] (Eterna round: R96, puzzle: Same State NG 2)
2. AUUUUUAAUGCAGGAUAUGAUUAACAUGAGGAUCACCCAUGUGGUGUUGUGAGUAAGGAGAGUGAUCAGAAGGGCAUUUUUUUU [JMF's solution 30] (Eterna round: R96, puzzle: Same State NG 2)

172 nM
354 nM

###

- System: K4 kissing-loop RNA reporter;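 also: bound reporter read as fluorescence of individual clusters on recovered sequencing chips by microscopy, with normalized cluster intensities fitted with a binding model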
- Assay method text: apparent KD of K4 kissing-loop reporter; higher = weaker reporter binding
- Condition parameters: Eterna round: R107; input ligand: theophylline 20 uM
Label fulfilled when apparent KD of K4 kissing-loop reporter is at or above 0.2 µM; anything below gets not fulfilled.

[[record]]
residue_string = "AAAGUGUCAGCACGAGUGAUGUUCGUGGAUACCAGCCUCGAUAAAGGCCCUUGGCAGCCGAAAAGUCAAGGGCUGGCACAUAAAA [KL-XTheo-A11]"
qualitative_label = "fulfilled"


Reported apparent KD of K4 kissing-loop reporter at or above 0.2 µM? AAACGCUUGAAUAACAAGCGAAAUAAAAUUCGAGGACCGGUACGGCCGCCACUCGGGCUAACUGCGAGUGAUGUUCGAAAAUAAA [Mat - Mod of OpenEnded 3 - D17]
fulfilled

apparent KD of K4 kissing-loop reporter >= 0.2 µM for CGCCGGAAGGCGGUCGCUCCCACUCCGGAAGGAGCGCCCGGAAGGGCAGGUAGGUCGCCGGAGUGAUGUUCCGGUGGAGGGACCG [#2 Exclusion - Arginine A Attempt #10 (Inspired by Omei)] ?
not fulfilled

Hello, I need to know if `GGUAGCAUGGCGGCCGCCACUUUUACUGGAUCGGAAACGAUCCAGUAUUGUGUAGUGAUGUUACAAAGGACCGGGCCAUGCUACC` has measured apparent KD of K4 kissing-loop reporter not below 0.2 µM. Thanks!
not fulfilled

Can AGGAGCGUGCGAUGGAAAUCGCACGCUCCUCGAGGACCGGUACGGCCGCCACUCGCUCGCGCCGAGUGAUGUUCGGCCGGCGAAG [#2 Same State - Tryptophan A Attempt #16 (HarryS)] be said to have apparent KD of K4 kissing-loop reporter at or above 0.2 µM?
not fulfilled

###

- Tested on: MS2 coat protein
- Assay method text: apparent KD of MS2 coat protein; designed switch direction (-1 OFF switch, 1 ON switch): -1; higher = weaker reporter binding
- Condition parameters: Eterna round: R95; input ligand: FMN 200 uM
Answer each item with its documented apparent KD of MS2 coat protein.
Give bare numbers, in nM.

Provide apparent KD of MS2 coat protein for all items below, preserving their order.
1. AGUAGGUCUACCUUGGUGGAUCUGCAUAAUGCAAGUGUUACAUGAGGAUCACCCAUGUCCUCAUUUGCUCGUCUUAU [JL turnoff v2 99.22] (puzzle: Sensor v3, turn-off variant 2)
2. ACUAGCGAAAUGCUCGUCUUAUUUUUGUAGAGGUUCUAAACAUGAGGAUCACCCAUGUAGUGGUUUUUGUGGAGGUA [JR_SV3TOV2_Sub071] (puzzle: Sensor v3, turn-off variant 2)
3. GCGAAAACAAGCAAGUGAAACAUGAGGAUCACCCAUGUCCUCAUUUGCUCGUCUUAUAAAAGCUAUCGAAAGAUAGC [Mat - Sensor v3 - turn-off var 1 - Eli Mod - D49] (puzzle: Sensor v3, turn-off variant 1)

[39.4, 222, 9.41]

Could you report apparent KD of MS2 coat protein for every entry in the following list?
1. GUAUAACUACACGGGCUCAACAUGAGGAUCACCCAUGUCUUAUACGCAAGCUUUUUGCUUGUCUUAUCUGUCCGUGA [Tibimaesan] (puzzle: Sensor v3, turn-off variant 1)
2. GAUAGAGAGCAGGAUAUCUUGGAUAAGUAUAGUAGAGAAGGGCUCACAUGAGGAUCACCCAUGUGGUCCAAGAU [JL Dibiri mod 12] (puzzle: Exclusion 6)
3. AAGUAUAGAGGAUAUAGUGAGUACUACAUGAGGAUCACCCAUGUUCUUCAUUACGUAUUUCUAGAAGGCUGAUAAA [EX-5 Malc#24] (puzzle: Exclusion 5)
4. CUGAGCAGACGGAGAUCCAACAUGAGGAUCACCCAUGUCUCAUAAGCUUUUUGCUUGUCUUAUCCUCCUCUGUUCUC [Mariedxeor] (puzzle: Sensor v3, turn-off variant 1)
5. UCGGUGUCAGGAUAUACAUGAGGAUCACCCAUGUAGAGAGAAGAUAGGGAAAGAGUAGGUAGAAGGGACGAGAG [JR_Exclu3_Sub045] (puzzle: Exclusion 3)

12.6
28
611
17.7
43.7

# batch: return apparent KD of MS2 coat protein for each of the 2 sequences below
1. CAAAAGCUAGGAUAUACAUGAGGAUCACCCAUGUAUAGGUGGGCAGUUCUUAUCAAACGUAGAAGGAGCAUAAA [Uslaisan] (puzzle: Exclusion 3)
2. AGUAGAUCUACGCUUGCGUGGAUCUGCAAUGCAGGUGUUACAUGAGGAUCACCCAUGUCCUCGUUUGCUCGUCUUAG [JL turnoff v2 99.11] (puzzle: Sensor v3, turn-off variant 2)

1: 39.2; 2: 145
